Each recorded value in this set is attributed to patent US6858638B2.

# Test system: c-Src protein
# test.method.notes: Src kinase phosphorylation of biotinylated cdc2 substrate, fluorescence (DELFIA)
# Assay type: biochemical, human
# Method: The inhibition of the Src kinase is evaluated by measuring the phosphorylation of the biotinylated cdc2 substrate (Pierce) detected by fluorescence (DELFIA) using an antiphosphotyrosine antibody labeled with Europium, in 96-well Wallac plates. […] The plate is incubated for 30 minutes at 25° C. and then an “Enhancer” solution (Wallac) is added before reading the fluorescence using a fluorimeter (Perkin Elmer). […]
parameter.measured: SRC % inhib at 10 μM
A complete answer gives the number and then names the unit.

Worked examples, 3 compounds total:
CS(=O)(=O)c1ccccc1S(=O)(=O)Nc1ccc2[nH]nc(-c3nc4ccccc4[nH]3)c2c1 [Example 81]
100%
CS(=O)(=O)c1ccccc1S(=O)(=O)Nc1ccc2[nH]nc(-c3csc4ccccc34)c2c1 [Example 64]
86%
CS(=O)(=O)c1ccccc1S(=O)(=O)Nc1ccc2[nH]nc(-c3cccc4ccccc34)c2c1 [Example 72]
77%

Check the records and state SRC % inhib at 10 μM for Nc1cccc(S(=O)(=O)Nc2ccc3[nH]nc(-c4ccccc4)c3c2)c1 [Example 98]
78%

---

# target.system: human FAK (Homo sapiens)
# Construct: The complete cDNA of human FAK; made in house; host or cells: baculovirus expression system (vector pFastBac HTc)
# Sequence (Q05397 whole entry): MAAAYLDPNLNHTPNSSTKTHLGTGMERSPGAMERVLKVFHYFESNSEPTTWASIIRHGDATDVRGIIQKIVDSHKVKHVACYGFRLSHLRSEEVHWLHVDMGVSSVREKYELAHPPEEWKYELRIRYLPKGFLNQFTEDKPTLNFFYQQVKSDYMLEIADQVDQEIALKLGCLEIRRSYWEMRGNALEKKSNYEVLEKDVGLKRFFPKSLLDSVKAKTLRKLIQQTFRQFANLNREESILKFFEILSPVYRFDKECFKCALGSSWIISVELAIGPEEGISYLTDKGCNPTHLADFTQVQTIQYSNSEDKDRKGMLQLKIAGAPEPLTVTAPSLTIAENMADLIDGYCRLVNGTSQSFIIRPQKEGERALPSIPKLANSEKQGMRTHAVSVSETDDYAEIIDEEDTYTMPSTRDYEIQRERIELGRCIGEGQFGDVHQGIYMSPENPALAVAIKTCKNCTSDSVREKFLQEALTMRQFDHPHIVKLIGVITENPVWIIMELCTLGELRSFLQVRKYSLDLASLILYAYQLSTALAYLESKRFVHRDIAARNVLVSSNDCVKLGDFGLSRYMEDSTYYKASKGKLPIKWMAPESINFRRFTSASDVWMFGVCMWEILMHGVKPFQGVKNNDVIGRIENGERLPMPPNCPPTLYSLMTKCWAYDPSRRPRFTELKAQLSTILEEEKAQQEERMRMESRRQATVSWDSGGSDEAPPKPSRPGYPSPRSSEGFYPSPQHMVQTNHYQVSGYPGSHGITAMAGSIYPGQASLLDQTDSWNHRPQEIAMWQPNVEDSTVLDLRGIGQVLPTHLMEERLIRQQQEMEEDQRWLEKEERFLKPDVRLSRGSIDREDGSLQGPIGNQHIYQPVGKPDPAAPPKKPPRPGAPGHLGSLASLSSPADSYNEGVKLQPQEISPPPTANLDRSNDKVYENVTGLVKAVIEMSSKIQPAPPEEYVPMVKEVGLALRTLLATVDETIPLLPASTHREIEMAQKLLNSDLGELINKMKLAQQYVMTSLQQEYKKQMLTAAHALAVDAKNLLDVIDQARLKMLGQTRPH
# test.method.notes: FAK autophosphorylation inhibition, time resolved fluorescence (HTRF) assay
# Assay type: biochemical
# applied.conditions: 10 μM (values without asterisk); read-out: FAK % inhib at 10 μM
parameter.measured: inhibition at 10 µM

Check the records and state inhibition at 10 µM for Nc1cc(Cl)cc(Cl)c1S(=O)(=O)Nc1ccc2[nH]nc(-c3ccccc3)c2c1 [Example 159]
53%

---

Property: inhibition at 10 µM; scope: individual compounds
# target.system: human KDR enzyme (Homo sapiens, UniProt P35968)
# Construct: The cytoplasmic domain of the human KDR enzyme; GST; made in house; host or cells: SF21 insect cells (baculovirus)
# Sequence (P35968 786-1356 limits assumed): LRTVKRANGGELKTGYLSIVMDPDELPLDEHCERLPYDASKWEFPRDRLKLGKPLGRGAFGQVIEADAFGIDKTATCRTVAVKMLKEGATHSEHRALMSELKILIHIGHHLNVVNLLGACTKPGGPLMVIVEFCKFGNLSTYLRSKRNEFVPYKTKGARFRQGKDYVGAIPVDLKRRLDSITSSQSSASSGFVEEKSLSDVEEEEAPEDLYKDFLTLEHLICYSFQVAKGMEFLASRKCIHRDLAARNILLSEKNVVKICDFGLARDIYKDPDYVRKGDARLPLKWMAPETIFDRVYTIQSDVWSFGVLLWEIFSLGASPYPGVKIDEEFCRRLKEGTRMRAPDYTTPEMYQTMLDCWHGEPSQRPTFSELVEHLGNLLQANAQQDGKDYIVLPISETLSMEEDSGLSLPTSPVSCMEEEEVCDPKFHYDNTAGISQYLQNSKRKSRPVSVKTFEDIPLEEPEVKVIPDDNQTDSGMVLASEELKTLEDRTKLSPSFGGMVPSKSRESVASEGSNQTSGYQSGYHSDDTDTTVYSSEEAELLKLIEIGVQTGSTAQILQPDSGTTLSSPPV
# test.method.notes: KDR substrate (PLCγ) phosphorylation, scintillation assay
# Type: biochemical
# applied.conditions: 10 μM; read-out: KDR % inhib at 10 μM
Respond numerically; units are % and should not be typed.

Write down inhibition at 10 µM measured for item COc1ccc(OC)c(S(=O)(=O)Nc2ccc3[nH]nc(-c4ccccc4)c3c2)c1
95

Fill in inhibition at 10 µM for record CS(=O)(=O)c1ccccc1S(=O)(=O)Nc1ccc2[nH]nc(-c3cc4ccccc4s3)c2c1
73

---

# target.system: Aurora2 kinase (Homo sapiens)
# Construct: A complete recombinant Aurora2 enzyme; His tag (N); made in house; host or cells: E. coli
# Sequence (O14965 1-403): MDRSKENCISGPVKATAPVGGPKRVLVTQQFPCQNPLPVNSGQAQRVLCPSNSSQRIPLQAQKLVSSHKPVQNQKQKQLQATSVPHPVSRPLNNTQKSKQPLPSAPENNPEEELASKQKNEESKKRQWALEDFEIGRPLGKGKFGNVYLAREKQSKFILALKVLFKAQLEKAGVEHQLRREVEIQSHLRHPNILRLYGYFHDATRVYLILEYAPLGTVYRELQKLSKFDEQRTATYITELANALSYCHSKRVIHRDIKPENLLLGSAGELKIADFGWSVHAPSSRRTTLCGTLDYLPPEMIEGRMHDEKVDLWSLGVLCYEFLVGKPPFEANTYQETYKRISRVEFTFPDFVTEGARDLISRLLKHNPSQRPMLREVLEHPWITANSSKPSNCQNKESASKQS
# test.method.notes: Aurora2 kinase radioactivity scintillation assay using nickel chelate (NuMA substrate)
# Assay type: biochemical
# applied.conditions: 10 μM; read-out: Aurora2 % inhib at 10 μM
parameter.measured: inhibition at 10 µM (%)
Value expressed in %; do not type the unit.

Record excerpt, results attached:
O=S(=O)(Nc1ccc2[nH]nc(-c3ccc(O)cc3)c2c1)c1ccccc1 [Example 34]
100
O=S(=O)(Nc1ccc2[nH]nc(-c3ccccc3)c2c1)c1ccc(-c2ccon2)s1 [Example 150]
82

State, for Aurora2 kinase (Homo sapiens), measured inhibition at 10 µM of the compound listed here: COc1ccccc1-c1n[nH]c2ccc(NS(=O)(=O)c3ccccc3S(C)(=O)=O)cc12 [Example 183]
90

Tell me its inhibition at 10 µM on Aurora2 kinase (Homo sapiens): CS(=O)(=O)Nc1n[nH]c2ccc(NS(=O)(=O)c3cccc(F)c3)cc12 [Example 27]
76

Enter inhibition at 10 µM (test system Aurora2 kinase (Homo sapiens)) for CS(=O)(=O)c1ccccc1S(=O)(=O)Nc1ccc2[nH]nc(-c3cc4cccnc4[nH]3)c2c1 [Example 57]
53

# return inhibition at 10 µM of CSc1ccc(-c2n[nH]c3ccc(NS(=O)(=O)c4ccccc4S(C)(=O)=O)cc23)cc1 [Example 172] (system: Aurora2 kinase (Homo sapiens))
94

Provide Aurora2 kinase (Homo sapiens) inhibition at 10 µM reading for CS(=O)(=O)c1ccccc1S(=O)(=O)Nc1ccc2[nH]nc(-c3ccc(F)c(F)c3)c2c1 [Example 192] .
89

Under Aurora2 kinase (Homo sapiens): report inhibition at 10 µM of CS(=O)(=O)c1ccccc1S(=O)(=O)Nc1ccc2[nH]nc(-c3ccoc3)c2c1 [Example 52] .
84

---

# target.system: Aurora2 kinase (Homo sapiens, UniProt O14965)
# Construct: A complete recombinant Aurora2 enzyme; His tag (N); made in house; host or cells: E. coli
# test.method.notes: Aurora2 kinase radioactivity scintillation assay using nickel chelate (NuMA substrate)
# Format: biochemical
# applied.conditions: 10 μM; read-out: Aurora2 % inhib at 10 μM
The following compounds are shown together with reported inhibition at 10 µM values.
Note: unit % is implicit; provide only the numeric part.

These recorded examples may help you get a feel for the data.
CS(=O)(=O)c1ccccc1S(=O)(=O)Nc1ccc2[nH]nc(-c3ccc(C#N)cc3)c2c1 [Example 216]
91
CCCS(=O)(=O)Nc1ccc2[nH]nc(-c3ccccc3)c2c1 [Example 128]
87
CC(=O)Nc1ccc(S(=O)(=O)Nc2ccc3[nH]nc(-c4ccccc4)c3c2)cc1Cl [Example 146]
57
CS(=O)(=O)c1ccccc1S(=O)(=O)Nc1ccc2[nH]nc(-c3ccc[nH]3)c2c1 [Example 60]
100
CS(=O)(=O)c1ccccc1S(=O)(=O)Nc1ccc2[nH]nc(-c3ccc(C(F)(F)F)cc3)c2c1 [Example 176]
88
CS(=O)(=O)c1ccccc1S(=O)(=O)Nc1ccc2[nH]nc(-c3ccc(I)cc3)c2c1 [Example 218]
68
CS(=O)(=O)c1ccc(S(=O)(=O)Nc2ccc3[nH]nc(-c4ccccc4)c3c2)cc1 [Example 155]
61

Provide inhibition at 10 µM value for the following compound: CNc1n[nH]c2ccc(NS(=O)(=O)c3ccccc3S(C)(=O)=O)cc12 [Example 37]
36

---

# target.system: human IGF1R cytoplasmic domain (Homo sapiens, UniProt P08069)
# Construct: The human IGF1R cytoplasmic domain was cloned; made in house; host or cells: SF21 insect cells (baculovirus)
# Sequence (P08069 960-1367 limits assumed): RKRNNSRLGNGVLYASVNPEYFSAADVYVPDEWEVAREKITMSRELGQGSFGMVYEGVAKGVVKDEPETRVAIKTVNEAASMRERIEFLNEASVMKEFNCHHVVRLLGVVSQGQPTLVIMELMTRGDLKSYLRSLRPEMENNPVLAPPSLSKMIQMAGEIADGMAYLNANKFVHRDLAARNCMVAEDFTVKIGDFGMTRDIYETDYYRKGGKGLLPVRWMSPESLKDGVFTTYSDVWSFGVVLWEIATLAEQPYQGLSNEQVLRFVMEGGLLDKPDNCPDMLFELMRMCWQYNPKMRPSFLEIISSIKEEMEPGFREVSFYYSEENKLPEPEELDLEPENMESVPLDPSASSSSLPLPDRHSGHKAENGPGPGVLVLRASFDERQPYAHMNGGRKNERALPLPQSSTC
# test.method.notes: IGF1R autophosphorylation inhibition, time resolved fluorescence (HTRF) assay
# Type: biochemical
# applied.conditions: 10 μM; read-out: IGF1R % inhib at 10 μM
parameter.measured: inhibition at 10 µM

Examples with answers:
CS(=O)(=O)c1ccccc1S(=O)(=O)Nc1ccc2[nH]nc(-c3ccc4[nH]ccc4c3)c2c1 [Example 104]
73%
CS(=O)(=O)c1ccccc1S(=O)(=O)Nc1ccc2[nH]nc(-c3nc4ccccc4[nH]3)c2c1 [Example 81]
99%
Cc1cc2[nH]nc(-c3ccccc3)c2cc1NS(=O)(=O)c1ccccc1S(C)(=O)=O [Example 92]
62%
CS(=O)(=O)c1ccccc1S(=O)(=O)Nc1ccc2[nH]nc(-c3ccccc3-c3ccccc3)c2c1 [Example 173]
27%
COC(=O)/C=C/c1n[nH]c2ccc(NS(=O)(=O)c3ccccc3S(C)(=O)=O)cc12 [Example 79]
37%
CS(=O)(=O)c1ccccc1S(=O)(=O)Nc1ccc2[nH]nc(-c3cc4ccccc4o3)c2c1 [Example 180]
93%

# context switch: different molecule, same inhibition at 10 µM
Find the measured inhibition at 10 µM of O=S(=O)(Nc1ccc2[nH]nc(-c3ccccc3)c2c1)c1ccccc1C(F)(F)F [Example 109] with human IGF1R cytoplasmic domain (Homo sapiens, UniProt P08069) as test system.
81%

---

# target.system: Aurora2 kinase (Homo sapiens, UniProt O14965)
# Construct: A complete recombinant Aurora2 enzyme; His tag (N); made in house; host or cells: E. coli
# test.method.notes: Aurora2 kinase radioactivity scintillation assay using nickel chelate (NuMA substrate)
# Format: biochemical
# applied.conditions: 10 μM; read-out: Aurora2 % inhib at 10 μM
Attribute: inhibition at 10 µM
Entry rule: numbers only, all in %.

Below, 7 molecules whose answers are already recorded.
CCCCN(CCCC)c1cccc2c(S(=O)(=O)Nc3ccc4[nH]nc(-c5ccccc5)c4c3)cccc12
86
COC(=O)c1cccc(-c2n[nH]c3ccc(NS(=O)(=O)c4ccccc4S(C)(=O)=O)cc23)c1
94
CS(=O)(=O)c1ccccc1S(=O)(=O)Nc1ccc2[nH]nc(-c3ccc4[nH]ccc4c3)c2c1
97
CS(=O)(=O)c1ccccc1S(=O)(=O)Nc1ccc2[nH]nc(-c3cccc(F)c3)c2c1
94
CS(=O)(=O)c1ccccc1S(=O)(=O)Nc1ccc2[nH]nc(-c3cccc(C#N)c3)c2c1
93
Cc1n[nH]c2ccc(NS(=O)(=O)c3cccc(F)c3)cc12
61
COC(=O)/C=C/c1n[nH]c2ccc(NS(=O)(=O)c3ccccc3S(C)(=O)=O)cc12
95

State inhibition at 10 µM on Aurora2 kinase (Homo sapiens, UniProt O14965). Entry: CS(=O)(=O)c1ccccc1S(=O)(=O)Nc1ccc2[nH]nc(-c3ccc([N+](=O)[O-])cc3)c2c1
100
